PROTOCOL: BSK_SAg_PBMCCytotoxicity: PBMC Cytotoxicity Assessment in the BioMAP Diversity Plus: SAg Assay (AID 2283093);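 note: PBMC viability measured as Alamar Blue reduction fluorescence at 546/580 nm; fitted both ways against DMSO so a hit may be loss or gain of signal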
RECORDED_CONDITIONS: primary human HUVEC with PBMC
Experimental: BSK_SAg is a cell-based, multiplexed-readout assay that uses umbilical vein endothelium and peripheral blood mononuclear cells, a human vascular primary cell co-culture, with measurements taken at 24 hours after chemical dosing in a 96-well plate.BSK_SAg_PBMCCytotoxicity is an assay component measured in the BSK_SAg assay. It measures Alamar blue related to cell death using Alamar Blue Reduction technology.Data from the assay component BSK_SAg_PBMCCytotoxicity was analyzed into 1 assay endpoint. […]
Activity calls are given as the source filed them. Rule for the calls: active = hit-call score of the fitted dose curve at least 0.9, where 1 is the maximum; inactive = score below 0.9.
Outcome codes: true (active), false (inactive)

| COMPOUND | ASSIGNED_LABEL |
| --- | --- |
| O=C(O)C(F)(F)OC(F)(F)C(F)(F)OC(F)(F)F | false |
| O=S(=O)(F)C(F)(F)C(F)(F)C(F)(F)C(F)(F)C(F)(F)C(F)(F)C(F)(F)C(F)(F)F | false |
| CSC(C)(C)C=NO | false |
| CCCCN(CCCC)N=O | false |
| O=C(O)C(F)(OC(F)(F)C(F)(F)C(F)(F)F)C(F)(F)F (stereo not given) | false |
| CCCCCCCc1ccc(O)cc1 | true |
| ClC(Cl)c1ccccc1 | false |
| c1cc2c3c(cccc3c1)CC2 | false |
| Nc1ccc(Cl)cc1 | false |
| Cc1ccc(N)cc1N | false |
| CC(O)C(F)(F)C(F)(F)F (stereo not given) | false |
| O=P(OCC(Br)CBr)(OCC(Br)CBr)OCC(Br)CBr (stereo not given) | false |
| COCCOCCO | false |
| O=[N+]([O-])c1ccc(Cl)c(Cl)c1 | false |
| c1ccc2c(c1)sc1ccccc12 | false |
| O=[N+]([O-])c1ccccc1 | false |
| CCOP(=S)(NC(C)C)Oc1ccccc1C(=O)OC(C)C (stereo not given) | false |
| OCC1CO1 (stereo not given) | false |
| ClC1=C(Cl)C2(Cl)C3C(Cl)C(Cl)CC3C1(Cl)C2(Cl)Cl (stereo not given) | true |
| O=S1(=O)OCC2C(CO1)C1(Cl)C(Cl)=C(Cl)C2(Cl)C1(Cl)Cl (stereo not given) | false |
